# Test system: UACC-257 melanoma
# EXPERIMENTAL DETAILS: NCI-60 one-dose screen, 48 h (100 = growth as untreated, 0 = no growth, -100 = all killed)
# APPLIED CONDITIONS: 10 µM unless noted
Compounds without any hit were thinned out: in the full panel of roughly 83,000, 20% have a hit. Active and inactive are the calls of the source. Rule for the calls: active = growth percent below 10; inactive = the rest.
This section presents compounds with their documented growth values.

[in] Item COC(=O)CCCNCCCn1ccc2cc(NCc3cccc(-c4ccccc4)c3C)ccc21 has what recorded growth?
[out] 81.6% (inactive)

[in] Similarly, N#C/C(=C\c1ccc(-c2ccc(Cl)c(Cl)c2)o1)C(=O)Nc1ncc(Cc2ccc(Cl)cc2)s1 ?
[out] 78.2% (inactive)

[in] Would you kindly repeat that for OCC(Nc1ncnc2ccc(-c3cnc4cnccn34)cc12)c1ccccc1 (stereo not drawn) ?
[out] 80.7% (inactive)

---

# Tested on: IGROV1 ovarian
# EXPERIMENTAL DETAILS: NCI-60 one-dose screen, 48 h (100 = growth as untreated, 0 = no growth, -100 = all killed)
# APPLIED CONDITIONS: 10 µM unless noted
# Experimental: Growth inhibition of the IGROV1 human tumor cell line is measured as a screen for anti-cancer activity. Cells are grown in 96 well plates and exposed to the test compound for 48 hours. Compounds are tested at a single concentration, which is 10^-5 M for most compounds. The reported endpoint is percent growth (GI% or GIPRCNT), where numbers from 0 - 100% represent growth inhibition, and numbers from -100% - 0 represent cell death. For example, a value of 40 represents 60% growth inhibition. […]
This is part of a sample that, as a whole, favours compounds with a hit. Of some 83,000 tested, about 20% had one in any assay. Calls of active or inactive are those of the source. Rule for the calls: active = growth percent below 10; inactive = the rest.
# growth listing for each entry below

// solved cases for growth follow
{"columns": ["COMPOUND SMILES", "ASSAY SYSTEM", "growth"],
 "data": [
  ["O=C(NCCNc1cc(-c2cn(-c3ccccc3)nc2-c2cccc(O)c2)ccn1)Nc1cc(C(F)(F)F)cc(C(F)(F)F)c1", "IGROV1 ovarian", "82.2% (inactive)"],
  ["COc1ccc(/C=N/N=C(/c2ccccc2)c2ccc3nc(-c4ccc(Cl)cc4)[nH]c3c2)cc1", "IGROV1 ovarian", "97.5% (inactive)"],
  ["CNC(=O)c1cc(-n2ccc3cc(NC(=O)Nc4ccc(N5CCN(C)CC5)c(C(F)(F)F)c4)ccc32)ccn1", "IGROV1 ovarian", "91.9% (inactive)"],
  ["N#Cc1cccc(-c2cc(-c3ccc4c(c3)OCCO4)[nH]n2)c1", "IGROV1 ovarian", "36.5% (inactive)"],
  ["C=C(C)[C@@H]1CC[C@]2(C(=O)NC3CCCCC3)CC[C@]3(C)[C@H](CC[C@@H]4[C@@]5(C)CC[C@H](N)C(C)(C)[C@@H]5CC[C@]43C)[C@@H]12", "IGROV1 ovarian", "113% (inactive)"]
]}

[in] What measured growth goes with C1=CC(c2nn3c(-c4ccccc4)nnc3s2)=Cc2ccccc2O1 ?
[out] 64.3% (inactive)

[in] What do you have for CCN(CC)S(=O)(=O)c1ccc(-c2nc(C(Cl)Cl)nc3cc(C)nn23)cc1 ?
[out] 12% (inactive)

[in] Okay, and C/C(=N\NC(=O)/C=C/CC(=O)O)c1nnn(-c2ccc([N+](=O)[O-])cc2)c1C ?
[out] 103% (inactive)

[in] Please give the result for CCN(CC)S(=O)(=O)c1ccc(-c2nc(C(Cl)Cl)nc3cc(-c4ccc(F)cc4)nn23)cc1 too.
[out] 56.9% (inactive)

[in] And the next one, CN1CCN(c2ccc(Nc3nc(NCCNC(=O)c4ccccc4)c4sccc4n3)cc2)CC1 ?
[out] 87.9% (inactive)

[in] // same read-out, input: Cc1ccc(-c2csc(N/N=C/c3cccs3)n2)cc1
[out] 86.3% (inactive)

[in] CCOC(=O)c1ccc(NC2=C(Cl)C(=O)c3nc(C)ccc3C2=O)cc1 ?
[out] 7.95% (active)

[in] Also check CC(=O)OC[C@]12CC[C@@H](C(=O)/C=C/c3cccnc3)[C@@H]1[C@H]1CC[C@@H]3[C@@]4(C)CC[C@H](OC(C)=O)C(C)(C)[C@@H]4CC[C@@]3(C)[C@]1(C)CC2
[out] -12.9% (active)

[in] Similarly, Cc1nc(/N=C(N)/N=C(\N)c2cccc(Br)c2)sc1C ?
[out] 52.3% (inactive)
